The measured values listed here are drawn from patent US20230021483A1.

Field: GO annotation: positive regulation of chemokine production (Term: chemokine). Provide a value for each of the molecules that follow.
Test system: adjuvant-associated biological themes in LV, SP, LN
Conditions: LV, ID

Inquiry: Consider the molecule shown here: CC(O)COC[C@H]1O[C@@H]2O[C@H]3[C@H](O)[C@@H](O)[C@@H](O[C@H]4[C@H](O)[C@@H](O)[C@@H](O[C@H]5[C@H](O)[C@@H](O)[C@@H](O[C@H]6[C@H](O)[C@@H](O)[C@@H](O[C@H]7[C@H](O)[C@@H](O)[C@@H](O[C@H]8[C@H](O)[C@@H](O)[C@@H](O[C@H]1[C@H](O)[C@H]2O)O[C@@H]8COCC(C)O)O[C@@H]7COCC(C)O)O[C@@H]6COCC(C)O)O[C@@H]5COCC(C)O)O[C@@H]4COCC(C)O)O[C@@H]3COCC(C)O (stereo partly drawn) [bCD, Hydroxypropyl-beta-cyclodextrin] What is its recorded GO annotation: positive regulation of chemokine production (Term: chemokine)?
Reply text: 0

Inquiry: Bench note: what GO annotation: positive regulation of chemokine production (Term: chemokine) did Cc1ccc2c(=O)c3cccc(CC(=O)O)c3oc2c1C show?
Reply text: 0

Inquiry: Which GO annotation: positive regulation of chemokine production (Term: chemokine) value is on record for Nc1nc2c(ncn2[C@@H]2O[C@@H]3COP(=O)(O)O[C@H]4[C@@H](O)[C@H](n5cnc6c(=O)[nH]c(N)nc65)O[C@@H]4COP(=O)(O)O[C@H]3[C@H]2O)c(=O)[nH]1 [cdiGMP, Cyclic diguanylate monophosphate] ?
Reply text: 8.31

Inquiry: For the molecule Nc1nc2c(ncn2[C@@H]2O[C@@H]3COP(=O)(O)O[C@H]4[C@@H](O)[C@H](n5cnc6c(N)ncnc65)O[C@@H]4COP(=O)(O)O[C@@H]2[C@@H]3O)c(=O)[nH]1 [cGAMP, Cyclic [G(2′,5′)pA(3′,5′)p]] , what GO annotation: positive regulation of chemokine production (Term: chemokine) is on record?
Reply text: 0

----------
Test system: preferentially upregulated genes in LV, SP, LN
Test: Z-score-based differential gene expression analysis (adjuvant group- or adjuvant-associated genes, 40 module mapping, TargetMine annotation)
Type: in vivo, C57BL/6 mice
Settings: ID, LV, sample x3
Parameter: Tor1aip2 1418116_at (Group G1, Modules 20)
Lab note: jot the number down without any unit.

Inquiry: Tell me the measured Tor1aip2 1418116_at (Group G1, Modules 20) of Nc1nc2c(ncn2[C@@H]2O[C@@H]3COP(=O)(O)O[C@H]4[C@@H](O)[C@H](n5cnc6c(=O)[nH]c(N)nc65)O[C@@H]4COP(=O)(O)O[C@H]3[C@H]2O)c(=O)[nH]1 [cdiGMP, Cyclic diguanylate monophosphate] , please.
Reply text: 2.19

Inquiry: Requested field: Tor1aip2 1418116_at (Group G1, Modules 20). Item: CCOCc1nc2c(N)nc3ccccc3c2n1CC(C)(C)O
Reply text: 0.89

Inquiry: Which Tor1aip2 1418116_at (Group G1, Modules 20) is reported for this compound? Nc1nc2c(ncn2[C@@H]2O[C@@H]3COP(=O)(O)O[C@H]4[C@@H](O)[C@H](n5cnc6c(N)ncnc65)O[C@@H]4COP(=O)(O)O[C@@H]2[C@@H]3O)c(=O)[nH]1 [cGAMP, Cyclic [G(2′,5′)pA(3′,5′)p]]
Reply text: 2.68

Inquiry: Entry Cc1ccc2c(=O)c3cccc(CC(=O)O)c3oc2c1C : reported Tor1aip2 1418116_at (Group G1, Modules 20) = ?
Reply text: 1.37
